System: 889142-216-R-J1-PDC complex spheroid viability
assay protocol: Anticancer human tumor 889142-216-R-J1-PDC patient-derived bladder carcinoma cell line growth inhibition [POLQ]
details: second compound 1 µM; first compound 0.1 µM; hits give low values
attribute measured: viability, T/C (%)
Entry rule: numbers only, all in %.

{"compound": "O=C(Nc1ccc(O)c(NS(=O)(=O)c2ccc(F)cc2)c1)c1ccc(-c2ccccc2)cc1 + Nc1ccc(C#CCN(C(=O)Cc2ncc(C(F)(F)F)cc2C(F)(F)F)c2ccc(F)cc2)nn1", "quantitative readout": 84.7}
{"compound": "CCCS(=O)(=O)Nc1ccc(F)c(C(=O)c2c[nH]c3ncc(-c4ccc(Cl)cc4)cc23)c1F + COC1C(OC(N)=O)C(O)C(Oc2ccc3c(O)c(NC(=O)c4ccc(O)c(CC=C(C)C)c4)c(=O)oc3c2C)OC1(C)C", "quantitative readout": 109}
{"compound": "CC1COCCN1c1cc(C2(S(C)(=N)=O)CC2)nc(-c2ccnc3[nH]ccc23)n1 (centres undefined) + Cc1cccc(N(C)C(=O)C2C(O)CCN2c2nc(C)cc(C(F)(F)F)c2C#N)c1", "quantitative readout": 106}
{"compound": "COc1ccc([C@@H](O)c2cc(-c3ncnc4cc(N5CCOCC5)ccc34)c(F)cc2Cl)nn1 + COC1C(OC(N)=O)C(O)C(Oc2ccc3c(O)c(NC(=O)c4ccc(O)c(CC=C(C)C)c4)c(=O)oc3c2C)OC1(C)C", "quantitative readout": 112}
{"compound": "CCc1cc2c(N3CCc4c(cc(Cn5ccnc5)cc4-c4cn(C)nc4C(F)(F)F)C3=O)ccnc2c(OC)n1 + Cc1cccc(N(C)C(=O)C2C(O)CCN2c2nc(C)cc(C(F)(F)F)c2C#N)c1", "quantitative readout": 85.7}

Task item: Identify measured viability, T/C corresponding to CC[C@@]1(O)C(=O)OCc2c1cc1n(c2=O)Cc2cc3c(CN(C)C)c(O)ccc3nc2-1 + Nc1ccc(C#CCN(C(=O)Cc2ncc(C(F)(F)F)cc2C(F)(F)F)c2ccc(F)cc2)nn1
Reply: 55.9

Task item: Identify measured viability, T/C corresponding to O=C(c1cc(Cc2n[nH]c(=O)c3ccccc23)ccc1F)N1CCN(C(=O)C2CC2)CC1 + Cc1cccc(N(C)C(=O)C2C(O)CCN2c2nc(C)cc(C(F)(F)F)c2C#N)c1
Reply: 98.5

Task item: Identify measured viability, T/C corresponding to O=c1[nH]cc(F)c(=O)[nH]1 + COC1C(OC(N)=O)C(O)C(Oc2ccc3c(O)c(NC(=O)c4ccc(O)c(CC=C(C)C)c4)c(=O)oc3c2C)OC1(C)C
Reply: 123

Task item: Identify measured viability, T/C corresponding to Nc1ccn(C2OC(CO)C(O)C2(F)F)c(=O)n1 (centres undefined) + COC1C(OC(N)=O)C(O)C(Oc2ccc3c(O)c(NC(=O)c4ccc(O)c(CC=C(C)C)c4)c(=O)oc3c2C)OC1(C)C
Reply: 58.3

---

System: 889142-216-R-J1-PDC complex spheroid viability
assay protocol: Anticancer human tumor 889142-216-R-J1-PDC cell line growth inhibition [POLQ];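 also: spheroids exposed to compounds for seven days; 100% = DMSO vehicle control viability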
details: second compound 1 µM; first compound 0.000316 µM; hits give low values
attribute measured: viability, T/C (%)
Entry rule: numbers only, all in %.

{"compound": "CC[C@@]1(O)C(=O)OCc2c1cc1n(c2=O)Cc2cc3c(CN(C)C)c(O)ccc3nc2-1 + Nc1ccc(C#CCN(C(=O)Cc2ncc(C(F)(F)F)cc2C(F)(F)F)c2ccc(F)cc2)nn1", "quantitative readout": 86.9}
{"compound": "CC[C@@]1(O)C(=O)OCc2c1cc1n(c2=O)Cc2cc3c(CN(C)C)c(O)ccc3nc2-1 + Cc1cccc(N(C)C(=O)C2C(O)CCN2c2nc(C)cc(C(F)(F)F)c2C#N)c1", "quantitative readout": 100}
{"compound": "Cn1ncnc1[C@H]1c2n[nH]c(=O)c3cc(F)cc(c23)N[C@@H]1c1ccc(F)cc1 + Nc1ccc(C#CCN(C(=O)Cc2ncc(C(F)(F)F)cc2C(F)(F)F)c2ccc(F)cc2)nn1", "quantitative readout": 127}
{"compound": "Cn1ncnc1[C@H]1c2n[nH]c(=O)c3cc(F)cc(c23)N[C@@H]1c1ccc(F)cc1 + COC1C(OC(N)=O)C(O)C(Oc2ccc3c(O)c(NC(=O)c4ccc(O)c(CC=C(C)C)c4)c(=O)oc3c2C)OC1(C)C", "quantitative readout": 88.9}

Task item: Identify measured viability, T/C corresponding to Cn1ncnc1[C@H]1c2n[nH]c(=O)c3cc(F)cc(c23)N[C@@H]1c1ccc(F)cc1 + Cc1cccc(N(C)C(=O)C2C(O)CCN2c2nc(C)cc(C(F)(F)F)c2C#N)c1
Reply: 97.5

meta.source: PubChem BioAssay AID1963831
